Cited source for all entries: ChEMBL document CHEMBL5584239

- Test system: MCF7
- Assay Protocol: Antiproliferative activity against human MCF7 cells incubated for 5 days by MTT assay
- Assay type: functional, cell-based
- Measurement Setup: MCF7, 120 h
Observed Property: IC50 (µM)

• CC(C)c1ccccc1C(=O)c1cnc2cc(O)ccc2c1Oc1ccc(/C=C/C(=O)O)cc1 = 0.58
• Cc1cccc(C)c1C(=O)c1cnc2cc(O)ccc2c1Oc1ccc(/C=C/C(=O)O)cc1 = 0.93
• O=C(O)/C=C/c1ccc(Oc2c(C(=O)c3ccc(C(F)(F)F)cc3)cnc3cc(O)ccc23)cc1 = 0.69
• O=C(O)/C=C/c1ccc(Oc2c(C(=O)c3cccs3)cnc3cc(O)ccc23)cc1 = 7.17
• Cc1cc(C)cc(C(=O)c2cnc3cc(O)ccc3c2Oc2ccc(/C=C/C(=O)O)cc2)c1 = 4.8
• Cc1cc(F)ccc1C(=O)c1cnc2cc(O)ccc2c1Oc1ccc(/C=C/C(=O)O)cc1 = 0.42
• CCc1ccccc1C(=O)c1cnc2cc(O)ccc2c1Oc1ccc(/C=C/C(=O)O)cc1 = 0.15
• O=C(O)/C=C/c1ccc(Oc2c(C(=O)c3ccc(OC(F)(F)F)cc3)cnc3cc(O)ccc23)cc1 = 1.36
• CCc1ccccc1C(=O)c1cnc2cc(O)ccc2c1Oc1ccc(/C=C/C(=O)O)cc1OC = 14.1
• Cc1cc(F)cc(C)c1C(=O)c1cnc2cc(O)ccc2c1Oc1ccc(/C=C/C(=O)O)cc1 = 0.41
• O=C(O)/C=C/c1ccc(Oc2c(C(=O)c3ccccc3C(F)(F)F)cnc3cc(O)ccc23)cc1 = 0.37
• CCc1ccccc1C(=O)c1cnc2cc(O)ccc2c1Oc1cc(C)c(/C=C/C(=O)O)c(C)c1 = 0.59
• O=C(O)/C=C/c1ccc(Oc2c(C(=O)c3ccc(F)cc3)cnc3cc(O)ccc23)cc1 = 4.87
• Cc1cc(Cl)ccc1C(=O)c1cnc2cc(O)ccc2c1Oc1ccc(/C=C/C(=O)O)cc1 = 0.37
• CCc1cc(/C=C/C(=O)O)ccc1Oc1c(C(=O)c2ccccc2CC)cnc2cc(O)ccc12 = 0.51
• CCc1ccccc1C(=O)c1cnc2cc(O)ccc2c1Oc1ccc(/C=C/C(=O)O)c(C)c1 = 3.57
• C[C@]12CC[C@@H]3c4ccc(O)cc4C[C@@H](CCCCCCCCC[S+]([O-])CCCC(F)(F)C(F)(F)F)[C@H]3[C@@H]1CC[C@@H]2O (stereo not given in full) = 0.000646
• O=C(O)/C=C/c1ccc(Oc2c(C(=O)c3ccccc3)cnc3cc(O)ccc23)cc1 = 1.67
• O=C(O)/C=C/c1ccc(Oc2c(C(=O)c3ccc4occc4c3)cnc3cc(O)ccc23)cc1 = 1.47
• O=C(O)/C=C/c1ccc(Oc2c(C(=O)c3cccc(F)c3)cnc3cc(O)ccc23)cc1 = 2.42
• Cc1ccc(C(=O)c2cnc3cc(O)ccc3c2Oc2ccc(/C=C/C(=O)O)cc2)c(C)c1 = 0.45
• CCc1ccccc1C(=O)c1cnc2cc(O)ccc2c1Oc1ccc(/C=C/C(=O)O)cc1F = 0.67
• CCc1ccccc1C(=O)c1cnc2cc(O)ccc2c1Oc1ccc(/C=C/C(=O)O)cc1C = 0.45
• COc1ccc(C(=O)c2cnc3cc(O)ccc3c2Oc2ccc(/C=C/C(=O)O)cc2)cc1 = 3.09
• CC/C(=C(\c1ccccc1)c1ccc(OCCN(C)C)cc1)c1ccccc1 = 1.56
